Test system: Zika virus NS2B-NS3 protease (linked construct)
testName: Primary screen NINDS Rhodamine qHTS for Zika virus inhibitors (AID 1347160); further: nearly all actives have a fitted effect of over 55% in size
statedConditions: purified NS2B-NS3 protease, Rhodamine110 substrate fluorescence; series mostly up to 112 µM
Records with an inconclusive call do not appear. The source made the active and inactive calls. The call rests on the fitted dose curve; in most records, active means well fitted inhibition curve with a large enough effect; inconclusive means small, poorly fitted or top-dose-only effect; inactive means no such curve, though single readings can be large or run the other way. Bridge positions count the residues as written; N and C are the ends. Square brackets hold non-standard residues; d marks the D form. Side chains are listed from the residue outwards. Peptide text beside a SMILES is read from it. * marks the point of attachment. Phg(4-OMe) = COc1ccc([C@H](N)C(=O)O)cc1; d(aIle) = CC[C@H](C)[C@@H](N)C(=O)O; d(aThr) = C[C@@H](O)[C@@H](N)C(=O)O; NMeF = CN[C@@H](Cc1ccccc1)C(=O)O; Isobutyryl = CC(C)C(=O)*
Could you please pick one outcome from this set? 1 (yes) = active, 0 (no) = inactive

Example entries and their recorded answers appear below.
- compound: "C/C=C(/C)c1cc(O)c(C)c2c1Oc1cc(O)cc(C)c1C(=O)O2"
  answerLabel: "1 (yes)"
- compound: "CC1=C2CC[C@]3(C)[C@H](CC=C4[C@@H]5CC(C)(C)CC[C@@H]5C(=O)[C@H](O)[C@]43C)[C@@]2(C)C=C(O)C1=O"
  answerLabel: "1 (yes)"
- compound: "COc1ccc2[nH]c3c(c2c1)CCN1C[C@H]2C[C@@H](OC(=O)c4cc(OC)c(OC)c(OC)c4)[C@H](OC)[C@@H](OC)[C@H]2C[C@H]31"
  answerLabel: "0 (no)"
- compound: "COc1ccc([C@@H]2CC(=O)c3c(cc(O)c(C/C=C(\\C)CCC=C(C)C)c3O)O2)cc1"
  answerLabel: "1 (yes)"
- compound: "C/C(=C\\[C@H](C)C(=O)/C=C/CC1CC(=O)NC(=O)C1)[C@@H]1OC(=O)/C=C/CC/C=C/C[C@@H](O)[C@@H]1C"
  answerLabel: "1 (yes)"
- compound: "CO/C=C/C(=O)c1cc2cnc3c(N)cc(=NC(=O)C(C)C)c([nH]1)c23"
  answerLabel: "1 (yes)"

Just curious, what result did C=CC(CCCCC)C1C(=O)NC(=O)C1C(=O)C1C(/C=C/C)C=CC2CC(C(=O)O)CC(C)C21 (centres undefined) get here?
1 (yes)

Just curious, what result did CCCc1c2c([nH]c(=O)c1C)C(=O)c1[nH]c(=O)c(C)c(CCC)c1C2=O get here?
1 (yes)

Just curious, what result did COC(=O)c1cc2cc3c(c(O)c2c(=O)o1)OC1(CC3)CC2=C(O1)C(=O)c1c(O)c(OC)cc(OC)c1C2=O (centres undefined) get here?
1 (yes)

Just curious, what result did COc1c(O)cc2c(c1O)C(=O)c1c(coc1C)C2=O get here?
1 (yes)

Just curious, what result did O=C1CC2OCC=C3CN4C5CC3C2[C@@H]2N1c1ccccc1[C@]52C[C@@H]4C1=C[C@H]2C3CC4N(CC[C@@]45c4ccccc4N(C1=O)[C@@H]25)C/C3=C/CO (some centres undefined) get here?
0 (no)

Just curious, what result did C[C@]12CC[C@]3(C1)[C@H](CC2=O)C[C@@H](OC(=O)c1ccccc1)[C@H]1[C@](C)(C(=O)O)CCC[C@@]13C get here?
1 (yes)

Just curious, what result did COC12OC1(C13OC1(OC)C(=O)c1cc4cc(C)oc(=O)c4c(O)c1C3O)C(O)c1c(cc3cc(C)oc(=O)c3c1O)C2=O (centres undefined) get here?
1 (yes)

Just curious, what result did CC[C@H](C)[C@H]1NC(=O)[C@@H](NC(=O)C(C)C)[C@@H](C)OC(=O)[C@H](COC(=O)CNC(C)=O)NC(=O)[C@@H]([C@@H](C)O)NC(=O)[C@H](Cc2ccccc2)N(C)C(=O)[C@H](c2ccc(OC)cc2)NC1=O (Isobutyryl-T[d(aIle)][Phg(4-OMe)][NMeF][d(aThr)]S([Gly-Ac]); ester 1-C) get here?
0 (no)

---

# Lookup of reported Potency keyed by entry
assayTarget: Lysosomal acid glucosylceramidase (Homo sapiens) (UniProt P04062)
Sequence (P04062 whole entry, looked up): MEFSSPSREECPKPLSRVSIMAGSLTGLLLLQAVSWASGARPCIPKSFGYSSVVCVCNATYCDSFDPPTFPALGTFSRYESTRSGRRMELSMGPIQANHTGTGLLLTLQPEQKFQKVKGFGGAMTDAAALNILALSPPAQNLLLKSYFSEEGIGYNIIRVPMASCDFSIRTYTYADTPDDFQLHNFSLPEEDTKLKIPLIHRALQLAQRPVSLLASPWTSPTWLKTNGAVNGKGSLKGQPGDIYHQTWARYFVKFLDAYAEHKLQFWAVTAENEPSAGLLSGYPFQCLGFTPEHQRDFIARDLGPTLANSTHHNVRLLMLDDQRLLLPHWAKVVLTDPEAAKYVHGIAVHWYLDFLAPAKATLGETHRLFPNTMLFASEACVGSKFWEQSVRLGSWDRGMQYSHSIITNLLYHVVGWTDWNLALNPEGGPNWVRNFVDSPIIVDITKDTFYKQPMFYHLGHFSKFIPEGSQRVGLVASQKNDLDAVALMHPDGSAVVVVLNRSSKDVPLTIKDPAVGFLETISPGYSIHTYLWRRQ
testName: Glucocerebrosidase-p2 (AID 348); further: potency means the concentration at half of the fitted maximal effect
statedConditions: purified GBA, blue fluorogenic substrate, 40 min
The source made the active and inactive calls. Cut-off read from the data, not from the text of the source: active = potency below about 10 µM; inactive = the rest.

- smilesData: "COc1cccc(Nc2ncc3ncc(=O)n(CCc4ccccc4)c3n2)c1"
  Potency: "> 11.4 µM (inactive)"
- smilesData: "COc1ccc(-c2nc3cnc(Nc4cccc(OC)c4)nc3n(C)c2=O)cc1"
  Potency: "> 11.4 µM (inactive)"
- smilesData: "c1cncc(CNc2ncnc3ccc(-c4cccnc4)cc23)c1"
  Potency: "> 11.4 µM (inactive)"

Recorded Potency for Cc1noc(C)c1C(=O)N1CCC[C@@]2(CCN(Cc3ccccc3)C2)C1 , please?
> 11.4 µM (inactive)

Recorded Potency for COc1ncc2ncc(=O)n(C)c2n1 , please?
> 11.4 µM (inactive)

Recorded Potency for O=C(c1cccc(F)c1)N1CCC[C@@]2(CCN(Cc3nccs3)C2)C1 , please?
> 11.4 µM (inactive)

---

testName: NFAT Signaling Pathway (AID 444);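 further: carbachol stimulus at about its EC50 of 1 µM final; on the % scale 0 is the no-effect control and ±100 the full control effect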
statedConditions: Jurkat NFAT-bla M1, carbachol, beta-lactamase ratio, 5 h; at 7.69 µM (top of the series) unless noted
Records with an inconclusive call do not appear. The source made the active and inactive calls. Calls come from the whole dose curve; as a rule, active = well fitted curve in either direction with a large enough effect (not every such curve was filed as active); inconclusive = small, poorly fitted or top-dose-only effect, or another doubt; inactive = flat fitted curve, though single readings scatter.
# Lookup of reported activity change, negative = inhibition keyed by entry

Record excerpt, results attached:
- smilesData: "O=C(c1ccco1)N1CCC[C@@]2(CCN(c3ccccc3)C2)C1"
  activity change, negative = inhibition: "-13.1% (inactive)"
- smilesData: "COCCn1c(=O)c(-c2ccccc2)nc2cnc(Oc3ccc(OC)cc3)nc21"
  activity change, negative = inhibition: "0.481% (inactive)"
- smilesData: "COc1ccc2[nH]cc(CCNc3ncnc4ccc(-c5cccnc5)cc34)c2c1"
  activity change, negative = inhibition: "18.7% (inactive)"
- smilesData: "COc1cccc(-c2cncnc2Nc2ccc(F)cc2)c1"
  activity change, negative = inhibition: "13.9% (inactive)"

Recorded activity change, negative = inhibition for COc1cccc(Nc2ncc3nc(C)c(=O)n(Cc4cccs4)c3n2)c1 , please?
-29.6% (inactive)

Recorded activity change, negative = inhibition for CC(=O)NCCNc1ccnc(-c2ccccc2C(F)(F)F)n1 , please?
-3.29% (inactive)

Recorded activity change, negative = inhibition for CS(=O)(=O)Nc1cccc(-c2cncnc2Nc2ccc(F)cc2)c1 , please?
26% (inactive)

Recorded activity change, negative = inhibition for O=c1c(CCc2ccccc2)nc2cnc(N3CCNCC3)nc2n1C1CC1 , please?
-7.73% (inactive)

Recorded activity change, negative = inhibition for FC(F)(F)c1ccccc1-c1nc(NC2CCNCC2)c2ccccc2n1 , please?
7.17% (inactive)

Recorded activity change, negative = inhibition for CC(=O)N1CCC[C@@]2(CCN(c3ccncc3)C2)C1 , please?
3.22% (inactive)

Recorded activity change, negative = inhibition for CS(=O)(=O)N1CCC[C@@]2(CCN(Cc3nccs3)C2)C1 , please?
5.31% (inactive)

---

assayTarget: Calcium and integrin-binding protein 1 (Homo sapiens) (UniProt Q99828)
Sequence (Q99828 whole entry, looked up): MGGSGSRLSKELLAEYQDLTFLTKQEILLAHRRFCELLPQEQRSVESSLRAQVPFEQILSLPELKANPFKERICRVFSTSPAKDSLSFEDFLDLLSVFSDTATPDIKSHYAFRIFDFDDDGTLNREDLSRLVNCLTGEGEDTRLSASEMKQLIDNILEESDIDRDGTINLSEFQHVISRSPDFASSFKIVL
testName: Primary qHTS for Identification of Calcium Integrin Binding Protein 1 (CIB1) Competitor (AID 1508620);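 further: GST tagged CIB1 binding a fluorescein labelled alphaIIb integrin peptide tracer; top concentration of the series differs between compounds; on the % scale 0 is the no-effect control and ±100 the full control effect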
statedConditions: CIB1-GST / FITC-alphaIIb peptide fluorescence polarization; series mostly up to 114 µM
Records with an inconclusive call do not appear. Activity calls are given as the source filed them. Calls follow the shape of the dose curve; as a rule, active = well fitted inhibition curve with a large enough effect; inconclusive = small, poorly fitted or top-dose-only effect; inactive = flat fitted curve, though single readings scatter.
experimentalReadout: outcome

- molecule: "COc1ccc(-c2c(NC(C)=O)sc3c2CCNC3)cc1"
  outcome: "inactive"
- molecule: "Cc1cccc(-n2cnc3cc(C(=O)N4CCC(C#N)CC4)ccc32)c1"
  outcome: "inactive"
- molecule: "O=C(Nc1ccc(-c2nc3ccccc3[nH]2)cc1)Nc1ccc2occc2c1"
  outcome: "inactive"
- molecule: "COc1ccc(C2Nc3ccccc3C(=O)N2CCc2ccccc2)cc1COc1ccc(NC(C)=O)cc1 (stereo not given)"
  outcome: "inactive"
- molecule: "FC(F)(F)c1ccccc1-c1nc(NCc2ccccc2)c2ccccc2n1"
  outcome: "inactive"
- molecule: "O=C(O)c1ccc2c(c1)C(=O)N([C@]1(C(=O)O)C[C@H]1c1ccccc1)C2=O"
  outcome: "inactive"

Notebook entry, Calcium and integrin-binding protein 1 (Homo sapiens) (UniProt Q99828) assay: outcome of Cc1ccc(NS(=O)(=O)c2ccc3c(ccn3C)c2)cc1C = ?
inactive

Notebook entry, Calcium and integrin-binding protein 1 (Homo sapiens) (UniProt Q99828) assay: outcome of O=C(Nc1cccc2c1cnn2-c1ccc(F)cc1)c1ccccn1 = ?
inactive

Notebook entry, Calcium and integrin-binding protein 1 (Homo sapiens) (UniProt Q99828) assay: outcome of Cc1cc2c(s1)c1cnn(Cc3ccc(C(F)(F)F)cc3)c(=O)c1n2C = ?
inactive

Notebook entry, Calcium and integrin-binding protein 1 (Homo sapiens) (UniProt Q99828) assay: outcome of O=S(=O)(Nc1nc(-c2ccccc2C(F)(F)F)nc2ccccc12)c1ccc(-c2cccnc2)cc1 = ?
inactive
